Origin of the recorded values: the DeepSol protein solubility set

- ASSAY PROCEDURE: soluble on expression in E. coli; label from the status in PepcDB or PDB records

- RESIDUES: "MSLSCWKPLSKEEFEAIVSKYKDNPKIEIDYENLKFIPKFNEQIKKYYSNKIKGAKVENLVNEVYEAWFDYIIRIYERPKEKDILMFLPCAAKKPYYKSKTHRTIQRAISGFQIFNRIHRVIVSNPGIIPWEFHTYWPFNSYDWPEWEETEDIKKLYYWVTYKRVKEFLRRHQYNYYTVYMKPDSLTYKAVMDASKELNIKIIPLLDEKTYEKCKGQGNPLVKEPCIESLKNNLKQLQKQIYEGSNSEGHHHHHH"
  soluble on expression in E. coli: "soluble"
- RESIDUES: "GRYEIRFSGAGGQGLILAGVIMAEAASIYDGKQAVQSQSYGPEARGGASKSEVIISDGPVDYPKATQCDALLALTQEACDKYSADLKEGGVLLVDSDLVTKLPPGNYQTTAFNIINTAKNDVGREIVANIVALGAMVALTGVVSKEAAEKAVLSRVPEAFVELNRKAFQMGFEKALAAKK"
  soluble on expression in E. coli: "soluble"
- RESIDUES: "SNALANRIENVVSQERTRKKFESLVSDSPDGIVHLTTNGTILSVNPSMAGRLGADPDTLVGQQLSAVMDSEAANQRLEAGKSAVENGTATRSEDAVGGRHYHNQYIPVDSHRKSDTFQLVSRDIT"
  soluble on expression in E. coli: "soluble"
- RESIDUES: "MTPLERYQADLQRPDFFHDAAQANAVKHLQRLYDDLVAADHAKPGLFGKLLGRKSGGPVKGLYFWGGVGRGKTYLVDTFFESLPFEQKVRTHFHRFMKRVHEELKTLKGEKNPLTIIGKRFADEARVICFDEFFVSDITDAMILATLLEELFKNGVSLVATSNIVPDGLYKDGLQRARFLPAIALLKEHTEIVNVDSGVDYRLRALEQAELFHWPLSEQVEEEMARSFKALTPDCAKAQRDEALMIENREIRARLTCDDVAWFEFRELCDGPRSQNDYIELAKIFHAVLISNVEQMGVTKDDMARRFINLVDEFYDRSVKLIISAEVELKDLYSGGRLEFEFQRTLSRLLEMQSHEYLTRPHRPAAALEHHHHHH"
  soluble on expression in E. coli: "not soluble"
- RESIDUES: "MGSDKIHHHHHHVSQPTSSLVGKSRASIYRDLVLSAQGVRFGKTAGKDVDVIKYLFALLILLAFSAKGYHPKEAHEPLTTLAVDAMAQCGINLSESTRLQLMQGNLAMDEGAGKLPKELMNTSFAKAVFPMTKRIHNWHFYHPDKTADAQRLAGKTDMSMARLWQAAQAGLEQAPAEHKAYYLGAIIHLIQDVTVPAHAVPVYHGPKIIAWQREFAPLVNYLGFGFRGIFVIHDPVDDWPVNSTGAEQPIAAIPCPELHAASSNLSANFDALRTRVARQTLTALDNPIPGCAAPWRLFWREDLGHRYFAGYTQGIKPFGRANSLSGEGISIDGRPCEPDYQGFVETRHRAAIEATMAALQLSQLGVVSPVPTEAQ"
  soluble on expression in E. coli: "not soluble"
- RESIDUES: "MVKEPGGKHVLCVGAAVLDTLFRVADMPKGEGKVLPYEVLQIAEGMASSAAYAVHRMGGRASLWGAVGDDETGTRILRDLSESGIDTSGMTVAPGARSALSTIIIDNRGERLIVPFYDHRLHEKKRACTPEDIALFDAVLVDVRWPELALDVLTVARALGKPAILDGDVAPVETLEGLAPAATHIVFSEPAATRLTGLETVKDMLPVLHARYPQTFIAVTAGPAGCWWTEADDPTVHFQTTMQVEAVDTLAAGDIFHGTFALAMAEGMQSRAAVRLSSVAAALKCTVFGGRIGAPTREETEEAMRQWLERESEPALRAS"
  soluble on expression in E. coli: "soluble"
- RESIDUES: "MTNEADKFVVDVIYALPTQQKVISVSVLPGTSAIDIVRQSNMVSFFPEIELETVKLGVFSNVVKHDQVILPGQRVEIYRPLIADPKDVRRRRADKAKDEGRANKVTGGRVS"
  soluble on expression in E. coli: "soluble"
- RESIDUES: "MGEENQPNYTISQENWSLHRKGYDDQQRHQEKVQEAIKNNLPDLVTEESIVMSNGKDVVKIPIRSLDEYKIRYNYDKNKHVGQGNGDSKVGDVVARDGSGGQKQKGPGKGQGAGDAAGEDYYEAEVSILELEQAFFRELELPNLKRKEMDENRIEHVEFNDIRKTGLWGNIDKKRTMISAYKRNAMGGKASFHPIHQEDLKFRTWNEVLKPDSKAVVLAMMDTSGSMGIWEKYMARSFFFWMTRFLRTKYETVDIEFIAHHTEAKVVTEEEFFSKGESGGTICSSVYKKALELIDNKYSPDRYNIYPFHFSDGDNLTSDNARCVKLVEELMKKCNMFGYGEVNQYNRHSTLMSAYKNIKDENFRYYILKQKADVFHAMKSFFREESGEKMALEHHHHHH"
  soluble on expression in E. coli: "soluble"
- RESIDUES: "MTQIPPSRLHSPLDRLLVEAQRALDTVFGNPPAERPNPAGDTPDAALAPAQRQHAAGLMRINHVGEVCAQGLYFGQAAVARDDHTRQHLLTAAQEETDHLAWCADRLRELESRPSLFNPLWYAGSYALGAVAGLRGDDWSLGFVVETERQVEAHLDEHLETLPETDQRSRAILRVMKIDEARHADHAEQAGARILPPPIPSAMALASKLMKTIAYRFLEHHHHHH"
  soluble on expression in E. coli: "not soluble"
- RESIDUES: "MHLYYLGPKGTFSYLAAKQFESHEQYDFIPLSNLHEVIQSVSKDKQAVGIVPIENSIEGTINIVADSLAHHDVYAHGEIQLDIDFSLYGHHSNSLDDIHKVYSIAPAISQTINYIHRQQFDYDYVDSTIQSLNMIKDGIGAIAPLGSGETYGYHTLDQHIQDYPHNVTRFLVVKNHTHFIEHPNTTIFLITPKYDKPGLLASVLNTFTLFNINLSWIESRPLKTQLGMYHFYVQADTAINNDVNKIISILETLDFQVKIIGAFNKKN"
  soluble on expression in E. coli: "not soluble"
- RESIDUES: "KKEKSPKGKSSISPQARAFLEEVFRRKQSLNSKEKEEVAKKCGITPLQVRVWFINKRMRSK"
  soluble on expression in E. coli: "soluble"
- RESIDUES: "SNAMTDAVLELPAATFDLPLSLSGGTQTTLRAHAGHWLVIYFYPKDSTPGATTEGLDFNALLPEFDKAGAKILGVSRDSVKSHDNFCAKQGFAFPLVSDGDEALCRAFDVIKEKNMYGKQVLGIERSTFLLSPEGQVVQAWRKVKVAGHADAVLAALKAHAKQ"
  soluble on expression in E. coli: "soluble"
